Data origin, for the record: ChEMBL document CHEMBL1201862

- System: Hs-578T
- protocol.details: NCI tumour cell line growth inhibition, 48 h
Activity calls are given as the source filed them. Rule as the data show it: active = GI50 up to about 1.1 µM and inactive = higher.
Could you please pick one outcome from this set? active, inactive

Worked examples follow.
- compound: "O=S(=O)(/N=S(/Nc1ccccc1)C(F)(F)Cl)c1ccccc1 (stereo not given)"
  group.label: "inactive"
- compound: "CCOC(=O)c1nnn(CCCCO)c1C(=O)OCC"
  group.label: "inactive"
- compound: "O=C1Cc2c([nH]c3ccc(Br)cc23)-c2ccccc2N1 [KENPAULLONE]"
  group.label: "inactive"
- compound: "C/C1=C\\[C@@H](C)C[C@@H](C)OC(=O)[C@@H](C)NC(=O)[C@H](Cc2ccc(O)c(Br)c2)N(C)C(=O)CNC(=O)[C@H](C)C1"
  group.label: "active"

Q: Outcome? O=C1C(Cl)=C(Nc2ccc(OC(F)(F)F)cc2)C(=O)c2c(O)ccc(O)c21
Ans: active

---

- Test system: A498
- protocol.details: NCI tumour cell line growth inhibition, 48 h
Activity calls are given as the source filed them. No stated cut-off is given here; in the data, active = GI50 up to about 1.1 µM and inactive = higher.
experimental.readout: GI50

Take a look at these entries with their results.
- compound: "CC(=O)OC1CC2C(C)(C)OC(=O)CC(OC(C)=O)[C@]2(C)C2CCC3(C)C(=CCC3c3ccoc3)[C@]12C (stereo not given in full)"
  experimental.readout: "GI50"
  result: "17.6 µM (inactive)"
- compound: "CCCCCC/C=C\\CCCCCCCCCc1cccc(O)c1C(=O)O"
  experimental.readout: "GI50"
  result: "> 100 µM (inactive)"
- compound: "O=c1[nH]c(=S)c2cc3c(=S)[nH]c(=O)n(CCC(c4ccccc4)(c4ccccc4)c4ccccc4)c3nc2n1CCC(c1ccccc1)(c1ccccc1)c1ccccc1"
  experimental.readout: "GI50"
  result: "> 100 µM (inactive)"
- compound: "CCCc1nn(C)c(CCC(=O)N(Cc2ccccc2)Cc2ccccc2)c1CC"
  experimental.readout: "GI50"
  result: "> 100 µM (inactive)"

Here's the next entry for you.
Q: Identify the measured GI50 of CN(C)CCSCCO for A498.
Ans: > 100 µM (inactive)

---

- System: NCI-H460
- protocol.details: NCI tumour cell line growth inhibition, 48 h
Activity calls are given as the source filed them. Cut-off read from the data, not from the text of the source: active = GI50 up to about 1.1 µM and inactive = higher.
Hi there, use one of these labels in your reply, thanks! active, inactive

Example entries and their recorded answers appear below.
- molecule: "Cc1cc2c(cc1-c1cc3c(cc1C)C(C(C)C)=C(O)C(=O)/C3=C\\Nc1cccc3c(N)cccc13)/C(=C/Nc1cccc3c(N)cccc13)C(=O)C(O)=C2C(C)C"
  group.label: "inactive"
- molecule: "O=C(CC1SC(Nc2ccccc2Cl)=NC1=O)Nc1ccc(Cl)cc1Cl (stereo unspecified)"
  group.label: "inactive"
- molecule: "Cc1nc(C(N)=O)c(N)n1CCN1CCN(C(=O)CCCCCCCCCCNC2NC=Nc3[nH]cnc32)CC1 (stereo unspecified)"
  group.label: "inactive"
- molecule: "CCc1cc2c(Nc3ccccc3)c3c(nc2s1)CCCC3"
  group.label: "inactive"

Q: I would be grateful if you could indicate the recorded call for ClCc1nc2cc(Cl)ccc2o1 .
Ans: inactive

Q: So what was the verdict on CC1(O)CCn2c(=O)c3cc4ccccc4cc3c(=O)n2C1O (stereo unspecified) in this test?
Ans: inactive

---

Would you mind telling me the reported GI50 of each entry?
- System: SK-MEL-2
- protocol.details: NCI tumour cell line growth inhibition, 48 h
Active and inactive are the calls of the source. Cut-off read from the data, not from the text of the source: active = GI50 up to about 1.1 µM and inactive = higher.

- compound: "C=C(Nc1ccc([N+](=O)[O-])cc1[N+](=O)[O-])c1c/c(=N\\NC(N)=S)c2ccccc2o1"
  GI50: "> 100 µM (inactive)"
- compound: "Cc1ccc(/N=C2\\SC(=S)N(CCC[N+](C)(C)C)\\C2=N/c2ccc(C)cc2)cc1"
  GI50: "11 µM (inactive)"

Fill in GI50 for each of the 4 compounds listed.
1. CN(C)CC1CCCCCCCCCCCCC(CN(C)C)C1=O (stereo unspecified)
2. NC(=S)NS(=O)(=O)c1ccc(Cl)cc1Cl
3. Nc1ncn(C2OC(COP(=O)(O)O)C(O)C2O)c(=O)n1 (stereo unspecified)
4. COc1ccc(-c2cc(O)c3c(C)cc(C)nc3n2)cc1

Ans:
1. 12.4 µM (inactive)
2. > 100 µM (inactive)
3. > 100 µM (inactive)
4. 43.1 µM (inactive)
